All values here come from patent US20240270857A1.

Reported koff is given for each of the following binders.
Biological target: T1, Human IL-1Rrp2/IL-1R6 protein, His Tag (ACROBiosystems, IL2-H52H6) (human, UniProt Q9HB29 20-335)
T1 construct: Bought protein; the soluble protein is likely only the extracellular part; also called hIL-36R; human IL36R antigen; not shown: His tag
T1 sequence: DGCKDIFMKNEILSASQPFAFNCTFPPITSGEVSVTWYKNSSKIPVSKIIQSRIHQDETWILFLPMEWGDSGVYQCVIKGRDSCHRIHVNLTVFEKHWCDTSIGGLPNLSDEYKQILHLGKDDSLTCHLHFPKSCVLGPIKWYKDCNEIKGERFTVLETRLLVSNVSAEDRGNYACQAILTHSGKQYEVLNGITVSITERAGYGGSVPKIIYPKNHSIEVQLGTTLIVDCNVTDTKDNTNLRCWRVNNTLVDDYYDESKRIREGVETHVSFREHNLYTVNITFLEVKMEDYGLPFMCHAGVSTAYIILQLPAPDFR
Assay: BLI (ForteBio Octet), antibody on ProA sensor, 1:1 model
Answer format: numeric, s⁻¹ implied, no suffix.

Inquiry: Query (binder): hz84C4-1.5 (antibody, human IgG4 S228P, kappa, V domains shown, Humanized, human IgG4 / kappa) VH: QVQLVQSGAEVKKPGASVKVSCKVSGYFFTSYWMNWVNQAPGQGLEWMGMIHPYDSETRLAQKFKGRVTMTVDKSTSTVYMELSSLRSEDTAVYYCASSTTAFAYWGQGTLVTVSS VL: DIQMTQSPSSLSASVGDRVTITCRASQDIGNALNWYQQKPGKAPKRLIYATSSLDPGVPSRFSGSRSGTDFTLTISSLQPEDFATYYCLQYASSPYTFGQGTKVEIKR ; field requested: koff
Reply text: 0.000134

More entries:
Inquiry: Query (binder): hz84C4-2.2 (antibody, human IgG4 S228P, kappa, V domains shown, Humanized, human IgG4 / kappa) VH: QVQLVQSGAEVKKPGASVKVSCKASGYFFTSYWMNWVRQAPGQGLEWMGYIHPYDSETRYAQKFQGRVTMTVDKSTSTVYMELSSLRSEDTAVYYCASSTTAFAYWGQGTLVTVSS VL: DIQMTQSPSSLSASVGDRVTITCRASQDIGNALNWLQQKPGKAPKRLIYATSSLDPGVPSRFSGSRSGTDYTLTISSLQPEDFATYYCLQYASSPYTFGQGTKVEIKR ; field requested: koff
Reply text: 0.000142
